B1: CDKN1A (parent)
chain: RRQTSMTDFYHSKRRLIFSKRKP

variants of: B1; assay: protein stability index of a GFP-peptide fusion (GPS, HEK-293T) (PSI 1-6); higher = more stable; conditions: c terminus: native;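 also: lentivirally expressed fusions sorted by FACS into six bins by GFP to DsRed ratio, PSI derived from sequencing read proportions per bin multiplied by bin number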
Outcome measure: protein stability index
Just the number, please, no unit after it.

query: Which measured protein stability index value corresponds to RRQTSMTDFYHSKRRLIFSKRKW ?
result: 3.55

query: Which measured protein stability index value corresponds to RRQTSMTDFYHSKRRLIFSKRNP ?
result: 3.35

query: Which measured protein stability index value corresponds to RRQCSMTDFYHSKRRLIFSKRKP ?
result: 2.33

query: Which measured protein stability index value corresponds to RRQTSMTDFYFSKRRLIFSKRKP ?
result: 2.93

query: Which measured protein stability index value corresponds to RRQTSMTDFYHSKRRLIVSKRKP ?
result: 2.3

query: Which measured protein stability index value corresponds to RRQTSMTDFIHSKRRLIFSKRKP ?
result: 2.79

query: Which measured protein stability index value corresponds to RRQTSMTDFYHSKARLIFSKRKP ?
result: 2.14

query: Which measured protein stability index value corresponds to RRQTSMTDFYHSKRRLIFSKRDP ?
result: 1.85
